Tested on: RERF-LC-KJ
run.description: relative viability (nuclei count vs DMSO), 5 days (fraction); higher = more cells survive
stated.conditions: first compound 2.53 µM
Examples of molecules with documented relative viability follow.
Output spec: single numeric token, no unit.

Previously resolved entries follow.
{"columns": ["molecule", "study.target", "measurement.name", "endpoint.value"],
 "data": [
  ["CCCCCCCCCCCC1=C(O)C(=O)C=C(O)C1=O [Embelin] + CS(=O)(=O)N1CCN(Cc2cc3nc(-c4cccc5[nH]ncc45)nc(N4CCOCC4)c3s2)CC1 [Pictilisib] (partner 1 µM)", "RERF-LC-KJ", "relative viability", 0.618],
  ["CCCCCCCCCCCC1=C(O)C(=O)C=C(O)C1=O [Embelin] + Nc1ncn([C@H]2C[C@H](O)[C@@H](CO)O2)c(=O)n1 [Decitabine] (partner 2 µM)", "RERF-LC-KJ", "relative viability", 0.774],
  ["CCCCCCCCCCCC1=C(O)C(=O)C=C(O)C1=O [Embelin] + CC(=O)c1c(C)c2cnc(Nc3ccc(N4CCNCC4)cn3)nc2n(C2CCCC2)c1=O [Palbociclib] (partner 0.5 µM)", "RERF-LC-KJ", "relative viability", 1.24]
]}

# return recorded relative viability for entry CCCCCCCCCCCC1=C(O)C(=O)C=C(O)C1=O [Embelin] + C[C@]1(O)C[C@@H](c2nc(-c3ccc4ccc(-c5ccccc5)nc4c3)c3c(N)nccn32)C1 [Linsitinib] (partner 1 µM)
0.961

---

Test system: NCI-H1703
run.description: relative viability (nuclei count vs DMSO), 5 days (fraction); higher = more cells survive
stated.conditions: first compound 0.4 µM
measurement.name: relative viability
Output spec: single numeric token, no unit.

Previously resolved entries follow.
{"columns": ["compound", "study.target", "endpoint.value"],
 "data": [
  ["Clc1ccc(Nc2nnc(Cc3ccncc3)c3ccccc23)cc1 [Vatalanib] + O=C(c1cc(Cc2n[nH]c(=O)c3ccccc23)ccc1F)N1CCN(C(=O)C2CC2)CC1 [Olaparib] (partner 8 µM)", "NCI-H1703", 0.624],
  ["COc1cc(N2CCC(C(N)=O)CC2)ccc1Nc1nc(N)c(Cl)c(Nc2ccccc2S(=O)(=O)C(C)C)n1 [HG-5-88-01] + CS(=O)(=O)N1CCN(Cc2cc3nc(-c4cccc5[nH]ncc45)nc(N4CCOCC4)c3s2)CC1 [Pictilisib] (partner 1 µM)", "NCI-H1703", 0.228],
  ["C[C@@H]1CN(CC(=O)Nc2ccc3c(c2)Cc2cccc(-c4cc(=O)cc(N5CCOCC5)o4)c2S3)C[C@H](C)O1 + NC(=O)Nc1cc(-c2cccc(F)c2)sc1C(=O)N[C@H]1CCCNC1 [AZD7762] (partner 0.2 µM)", "NCI-H1703", 0.141]
]}

Continue with the next compound.
# return recorded relative viability for entry C[C@@H]1CN(CC(=O)Nc2ccc3c(c2)Cc2cccc(-c4cc(=O)cc(N5CCOCC5)o4)c2S3)C[C@H](C)O1 + Cc1nc(NC(=O)N2CCC[C@H]2C(N)=O)sc1-c1ccnc(C(C)(C)C(F)(F)F)c1 [Alpelisib] (partner 2 µM)
0.299

---

System: NCI-H520
run.description: relative viability (nuclei count vs DMSO), 5 days (fraction); higher = more cells survive
stated.conditions: first compound 1.265 µM
measurement.name: relative viability
Output spec: single numeric token, no unit.

Previously resolved entries follow.
{"columns": ["molecule", "study.target", "endpoint.value"],
 "data": [
  ["Clc1ccc(Nc2nnc(Cc3ccncc3)c3ccccc23)cc1 [Vatalanib] + O=C(CCCCCCC(=O)Nc1ccccc1)NO [Vorinostat] (partner 1 µM)", "NCI-H520", 0.661],
  ["Clc1ccc(Nc2nnc(Cc3ccncc3)c3ccccc23)cc1 [Vatalanib] + CS(=O)(=O)CCNCc1ccc(-c2ccc3ncnc(Nc4ccc(OCc5cccc(F)c5)c(Cl)c4)c3c2)o1 [Lapatinib] (partner 2 µM)", "NCI-H520", 0.741],
  ["COc1cc(N2CCC(C(N)=O)CC2)ccc1Nc1nc(N)c(Cl)c(Nc2ccccc2S(=O)(=O)C(C)C)n1 [HG-5-88-01] + CC(=O)Nc1cccc(-n2c(=O)n(C3CC3)c(=O)c3c(Nc4ccc(I)cc4F)n(C)c(=O)c(C)c32)c1 [Trametinib] (partner 0.02 µM)", "NCI-H520", 0.74],
  ["Clc1ccc(Nc2nnc(Cc3ccncc3)c3ccccc23)cc1 [Vatalanib] + Cc1cc(Nc2cc(N3CCN(C)CC3)nc(Sc3ccc(NC(=O)C4CC4)cc3)n2)n[nH]1 [Tozasertib] (partner 0.1 µM)", "NCI-H520", 0.443]
]}

# return recorded relative viability for entry COc1cc(N2CCC(C(N)=O)CC2)ccc1Nc1nc(N)c(Cl)c(Nc2ccccc2S(=O)(=O)C(C)C)n1 [HG-5-88-01] + Cc1nc(Nc2ncc(C(=O)Nc3c(C)cccc3Cl)s2)cc(N2CCN(CCO)CC2)n1 [Dasatinib] (partner 0.075 µM)
0.162
